// data source = patent US11453681B2

Target: human HPK1 (MAP4K1) (Homo sapiens (Human), UniProt Q92918)
Sequence (Q92918 17-274): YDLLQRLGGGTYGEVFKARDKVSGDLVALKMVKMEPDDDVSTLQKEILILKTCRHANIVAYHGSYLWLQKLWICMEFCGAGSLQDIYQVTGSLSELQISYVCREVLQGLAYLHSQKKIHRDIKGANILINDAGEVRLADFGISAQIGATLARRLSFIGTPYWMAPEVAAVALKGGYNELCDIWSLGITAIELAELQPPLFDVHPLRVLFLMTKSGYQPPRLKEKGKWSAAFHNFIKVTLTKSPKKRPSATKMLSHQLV
Assay: HPK1 IC50 Assay
Details: recombinant HPK1 kinase domain 0.15 nM, synthetic peptide substrate STK S1, 3 hours at 25° C., time-resolved fluorescence energy transfer; geometric mean of multiple experiments
pIC50: −log10 of the molar value.
Each record's class is read off its pIC50 using these ranges: bucket 1 (below 9), bucket 2 (9 to below 10), bucket 3 (10 or more)

                                    molecule  answer_label
 0  Cc1c(-c2cc(Cl)c3c(c2)/C(=C/c2cn[nH]c2)C(=O)N3)cnc2c1NCCO2 [Compound C66]      bucket 1
 1  Cc1cc(-c2cnc3c(c2C)NCCO3)cc2c1NC(=O)/C2=C\c1cn[nH]c1 [Compound C67]      bucket 1
 2  Cc1ncc(/C=C2\C(=O)Nc3c(F)cc(-c4cnc5c(c4)NCCO5)c(C)c32)[nH]1 [Compound C5]      bucket 1
 3  Cc1c(-c2ccc3c(c2)/C(=C/c2ccns2)C(=O)N3)cnc2c1NCCO2 [Compound C18]      bucket 1
 4  Cc1c(-c2ccc3c(c2)/C(=C/c2cc4ccccc4[nH]2)C(=O)N3)cnc2c1NCCO2 [Compound C62]      bucket 3
 5  Cc1c(-c2ccc3c(c2)/C(=C/c2cc4ncccc4[nH]2)C(=O)N3)cnc2c1NCCO2 [Compound C57]      bucket 3
 6  Cc1c(-c2cc(F)c3c(c2)/C(=C/c2ccc[nH]2)C(=O)N3)cnc2c1NCCO2 [Compound C26]      bucket 3
 7  Cc1n[nH]cc1/C=C1\C(=O)Nc2ccc(-c3cnc4c(c3C)NCCO4)cc21 [Compound C68]      bucket 2
 8  C/C(=C1/C(=O)Nc2ccc(-c3cnc4c(c3C)NCCO4)cc21)c1cnc[nH]1 [Compound C11]      bucket 2
 9  Cc1c(-c2ccc3c(c2)/C(=C/c2cnc[nH]2)C(=O)N3)cnc2c1NCCO2 [Compound C32]      bucket 2
10  Cc1c(-c2cc(F)c3c(c2C)/C(=C/c2cc4ncccc4[nH]2)C(=O)N3)cnc2c1NCCO2 [Compound C64]      bucket 2
11  Cc1ncc(/C=C2\C(=O)Nc3c(F)cc(-c4cnc5c(c4C)NCCO5)cc32)[nH]1 [Compound C10]      bucket 2
12  Cc1c(-c2cc(F)c3c(c2C)/C(=C/c2cc4cnccc4[nH]2)C(=O)N3)cnc2c1NCCO2 [Compound C54]      bucket 2
13  CCN(CC)CCNC(=O)c1c(C)[nH]c(/C=C2\C(=O)Nc3cc(F)c(-c4cnc5c(c4C)NCCO5)cc32)c1C [Compound C1]      bucket 3
14  Cc1ncc(/C=C2\C(=O)Nc3ccc(-c4ccc5c(c4C)NCCO5)cc32)[nH]1 [Compound C2]      bucket 1
15  Cc1c[nH]c(/C=C2\C(=O)Nc3c(C)cc(-c4cnc5c(c4C)NCCO5)cc32)c1 [Compound C24]      bucket 1

###

pIC50 listing for selected compounds.
Target: human HPK1 (MAP4K1) (Homo sapiens (Human))
Assay: HPK1 IC50 Assay
Conditions: recombinant HPK1 kinase domain 0.15 nM, synthetic peptide substrate STK S1, 3 hours at 25° C., time-resolved fluorescence energy transfer; geometric mean of multiple experiments
pIC50: −log10 of the molar value.
READOUT: pIC50

                                   compound                             target_entity  readout  recorded_result
0  Cc1c(-c2ccc3c(c2)/C(=C/c2cc4ccncc4[nH]2)C(=O)N3)cnc2c1NCCO2 [Compound C58]  human HPK1 (MAP4K1) (Homo sapiens (Human))    pIC50             9.96
1  Cc1c(-c2ccc3c(c2)/C(=C/c2ccc[nH]2)C(=O)N3)cnc2c1NCCO2 [Compound C29]  human HPK1 (MAP4K1) (Homo sapiens (Human))    pIC50            10.30
2  Cc1c(-c2ccc3c(c2)/C(=C/c2cc4cnccc4[nH]2)C(=O)N3)cnc2c1NCCO2 [Compound C60]  human HPK1 (MAP4K1) (Homo sapiens (Human))    pIC50            10.22
3  Cc1c(-c2cc(F)c3c(c2C)/C(=C/c2ccc[nH]2)C(=O)N3)cnc2c1NCCO2 [Compound C14]  human HPK1 (MAP4K1) (Homo sapiens (Human))    pIC50             9.54

###

Biological target: human HPK1 (MAP4K1) (Homo sapiens (Human))
Experiment: HPK1 IC50 Assay
Details: recombinant HPK1 kinase domain 0.15 nM, synthetic peptide substrate STK S1, 3 hours at 25° C., time-resolved fluorescence energy transfer; geometric mean of multiple experiments
READOUT: IC50 (nM)

>>> df
                             chemical_string  readout  unit  recorded_result
 0  Cc1c(-c2cc(F)c3c(c2)/C(=C/c2cc4ncccc4[nH]2)C(=O)N3)cnc2c1NCCO2     IC50    nM             0.05
 1  Cc1c(-c2cc3c(cc2F)NC(=O)/C3=C\c2cc3ccccc3[nH]2)cnc2c1NCCO2     IC50    nM             0.16
 2  CCN(CC)CCNC(=O)c1c(C)[nH]c(/C=C2\C(=O)Nc3c(F)cc(-c4cnc5c(c4C)NCCO5)cc32)c1C     IC50    nM             0.09
 3  Cc1ccc(/C=C2\C(=O)Nc3ccc(-c4cnc5c(c4C)NCCO5)cc32)[nH]1     IC50    nM             0.05
 4  CC/C(=C1/C(=O)Nc2ccc(-c3cnc4c(c3C)NCCO4)cc21)c1cnc[nH]1     IC50    nM                1
 5  Cc1c(-c2cc3c(cc2Cl)NC(=O)/C3=C\c2cc3cnccc3[nH]2)cnc2c1NCCO2     IC50    nM             0.16
 6  Cc1c(-c2ccc3c(c2)/C(=C/c2ncc[nH]2)C(=O)N3)cnc2c1NC(=O)C1(CC1)O2     IC50    nM             5.66
 7  Cc1c(-c2cc(F)c3c(c2)/C(=C/c2cnc(C4CC4)[nH]2)C(=O)N3)cnc2c1NCCO2     IC50    nM             0.05
 8  Cc1c(-c2ccc3c(c2)/C(=C/c2ncc[nH]2)C(=O)N3)cnc2c1NCC1(CC1)O2     IC50    nM             2.13
 9  CCN(CC)CCNC(=O)c1c(C)[nH]c(/C=C2\C(=O)Nc3ccc(-c4cnc5c(c4C)NCCO5)cc32)c1C     IC50    nM             0.05
10  Cc1c(-c2cnc3c(c2)/C(=C/c2cc4ccccc4[nH]2)C(=O)N3)cnc2c1NCCO2     IC50    nM             1.24
11  Cc1c(-c2cc(F)c3c(c2)/C(=C/c2cc4ccncc4[nH]2)C(=O)N3)cnc2c1NCCO2     IC50    nM             0.17
12  Cc1c(-c2cc3c(cc2F)NC(=O)/C3=C\c2cc3ncccc3[nH]2)cnc2c1NCCO2     IC50    nM             0.05
13  Cc1c[nH]c(/C=C2\C(=O)Nc3c(F)cc(-c4cnc5c(c4C)NCCO5)c(C)c32)c1     IC50    nM             0.51
14  Cc1c(-c2cc3c(cc2F)NC(=O)/C3=C\c2cc3ccncc3[nH]2)cnc2c1NCCO2     IC50    nM             0.13

###

Molecular target: human HPK1 (MAP4K1) (Homo sapiens (Human), UniProt Q92918)
Assay: HPK1 IC50 Assay
Assay type: biochemical
Details: recombinant HPK1 kinase domain 0.15 nM, synthetic peptide substrate STK S1, 3 hours at 25° C., time-resolved fluorescence energy transfer; geometric mean of multiple experiments
In plain terms, low IC50, meaning strictly below 0.2 nM, gives 1, and everything else gives 0.

>>> print(df.to_string())
                                    compound  answer_label
 0  Cc1ncc(/C=C2\C(=O)Nc3cc(F)c(-c4cnc5c(c4C)NCCO5)cc32)[nH]1 [Compound C8]             1
 1  Cc1c(-c2ccc3c(c2)/C(=C/c2nc4ccccc4[nH]2)C(=O)N3)cnc2c1NCCO2 [Compound C59]             0
 2  Cc1c(-c2ccc3c(c2)/C(=C/c2c[nH]c4ccccc24)C(=O)N3)cnc2c1NCCO2 [Compound C70]             0
 3  Cc1cc2c(cc1-c1cnc3c(c1C)NCCO3)/C(=C/c1cc3ncccc3[nH]1)C(=O)N2 [Compound C38]             1
 4  Cc1c(-c2cc(F)c3c(c2C)/C(=C/c2cc4ccncc4[nH]2)C(=O)N3)cnc2c1NCCO2 [Compound C63]             0
 5  Cc1c(-c2ccc3c(c2)/C(=C/c2cnn[nH]2)C(=O)N3)cnc2c1NCCO2 [Compound C27]             0
 6  Cc1ncc(/C=C2\C(=O)Nc3cc(Cl)c(-c4cnc5c(c4C)NCCO5)cc32)[nH]1 [Compound C7]             0
 7  Cc1c(-c2ccc3c(c2)/C(=C/c2cn[nH]c2)C(=O)N3)cnc2c1NCCO2 [Compound C69]             0
 8  Cc1c(-c2cnc3c(c2)NCCO3)cc(F)c2c1/C(=C/c1cc3cnccc3[nH]1)C(=O)N2 [Compound C42]             0
 9  Cc1cc2c(cc1-c1cnc3c(c1)NCCO3)/C(=C/c1cc3cnccc3[nH]1)C(=O)N2 [Compound C41]             0
10  Cc1c(-c2ccc3c(c2)/C(=C/c2cc(C#N)c[nH]2)C(=O)N3)cnc2c1NCCO2 [Compound C21]             1
11  Cc1c(-c2ccc3c(c2)/C(=C/c2cc(Br)c[nH]2)C(=O)N3)cnc2c1NCCO2 [Compound C20]             1
12  Cc1c(-c2ccc3c(c2)/C(=C/c2cc4cnccc4[nH]2)C(=O)N3)ccc2c1NC(=O)CO2 [Compound C39]             0
13  Cc1c(-c2ccc3c(c2)/C(=C/c2ccn[nH]2)C(=O)N3)cnc2c1NCCO2 [Compound C30]             0
14  Cc1c[nH]c(/C=C2\C(=O)Nc3ccc(-c4cnc5c(c4C)NCCO5)cc32)c1 [Compound C28]             1
15  Cc1ncc(/C=C2\C(=O)Nc3ccc(-c4cnc5c(c4C)NCCO5)cc32)[nH]1 [Compound C15]             1
